- Read-out: NAD(P)H dehydrogenase [quinone] 1 (NQO1), NQO1 (gene 1728)
- test name: LTEA_HepaRG_NQO1: Life Technologies and Expression Analysis (LTEA) Assay for NAD(P)H dehydrogenase [quinone] 1 (NQO1) using HepaRG (AID 2283526)
- condition context: mRNA level, 48 h; actives raise or lower the signal
Activity calls are given as the source filed them. Rule for the calls: active = hit-call score of the fitted dose curve at least 0.9, where 1 is the maximum; inactive = score below 0.9.
Your reply should match one of these outcome classes. t for active, f for inactive

IN: Dear colleague, could you share the recorded outcome for Cc1ccc(Cl)cc1 when you have a moment?
OUT: f

IN: Dear colleague, could you share the recorded outcome for COCCOC[C@H](CC1(C(=O)NC2CCC(C(=O)O)CC2)CCCC1)C(=O)Oc1ccc2c(c1)CCC2 (stereo partly specified) when you have a moment?
OUT: f

IN: Dear colleague, could you share the recorded outcome for CCCCCCCCCCO when you have a moment?
OUT: f

IN: Dear colleague, could you share the recorded outcome for Cc1ccccc1Cl when you have a moment?
OUT: f

IN: Dear colleague, could you share the recorded outcome for COCCOCCOC when you have a moment?
OUT: t

IN: Dear colleague, could you share the recorded outcome for O=C(OCCCCCOC(=O)c1ccccc1)c1ccccc1 when you have a moment?
OUT: t

IN: Dear colleague, could you share the recorded outcome for Cc1nc(-c2ccc3c(c2)CCN(CCC2CCC(NC(=O)/C=C/c4ccc(F)cc4)CC2)CC3)no1 (stereo unspecified) when you have a moment?
OUT: f

IN: Dear colleague, could you share the recorded outcome for O=C(N[C@@H](Cc1ccccc1)[C@@H](O)C(=O)N1C[C@@H](O)[C@@H](O)C1)c1cc2cc(Cl)ccc2[nH]1 when you have a moment?
OUT: f

IN: Dear colleague, could you share the recorded outcome for CCCCCC(=O)O when you have a moment?
OUT: f

IN: Dear colleague, could you share the recorded outcome for COc1cc(C=O)ccc1O when you have a moment?
OUT: f

IN: Dear colleague, could you share the recorded outcome for CC(C)c1ccc(C(=O)N=C(N)N)cc1S(C)(=O)=O when you have a moment?
OUT: t

IN: Dear colleague, could you share the recorded outcome for CC(=O)OCCOCCOCCOC(C)=O when you have a moment?
OUT: f

IN: Dear colleague, could you share the recorded outcome for CCCCC(CC)COC(=O)CC(C(=O)OCC(CC)CCCC)S(=O)(=O)O (stereo unspecified) when you have a moment?
OUT: f

IN: Dear colleague, could you share the recorded outcome for C1CCC(SSC2CCCCC2)CC1 when you have a moment?
OUT: f

IN: Dear colleague, could you share the recorded outcome for CC1=C(/C=C/C(C)=C/C=C/C(C)=C/CO)C(C)(C)CCC1 when you have a moment?
OUT: t

IN: Dear colleague, could you share the recorded outcome for CC(=O)Oc1ccccc1C(=O)O when you have a moment?
OUT: f

IN: Dear colleague, could you share the recorded outcome for C=CCOC(=O)c1ccccc1C(=O)OCC=C when you have a moment?
OUT: f

IN: Dear colleague, could you share the recorded outcome for Nc1nc(N)c2nc(CNc3ccc(C(=O)N[C@@H](CCC(=O)O)C(=O)O)cc3)cnc2n1 when you have a moment?
OUT: f

IN: Dear colleague, could you share the recorded outcome for CCc1c(C(=O)NN2CCCCC2)nn(-c2ccc(Cl)cc2Cl)c1-c1ccc(Br)cc1 when you have a moment?
OUT: t

IN: Dear colleague, could you share the recorded outcome for CCOc1ccc2c(c1)C(C)=CC(C)(C)N2 when you have a moment?
OUT: f

IN: Dear colleague, could you share the recorded outcome for Cc1oc(-c2ccccc2)nc1CCOc1cccc2c1ccn2CCC(=O)O when you have a moment?
OUT: f

IN: Dear colleague, could you share the recorded outcome for FC(F)(F)C(F)(F)C(F)(F)C(F)(F)C(F)(F)C(F)(F)CCI when you have a moment?
OUT: f

IN: Dear colleague, could you share the recorded outcome for Cc1ccc(N(C)C)cc1 when you have a moment?
OUT: f

IN: Dear colleague, could you share the recorded outcome for NS(=O)(=O)c1cc2c(cc1Cl)NCNS2(=O)=O when you have a moment?
OUT: f

IN: Dear colleague, could you share the recorded outcome for Nc1ccc(S(=O)(=O)c2ccc(N)cc2)cc1 when you have a moment?
OUT: f

IN: Dear colleague, could you share the recorded outcome for Cc1cccc([N+](=O)[O-])c1C when you have a moment?
OUT: f

====

- test name: ATG_EGR_CIS: Attagene CIS-FACTORIAL HepG2 Assay for human Early Growth Response 1 (EGR1) (AID 2282938)
- condition context: HepG2 Attagene CIS-FACTORIAL EGR reporter mRNA; actives raise or lower the signal
Calls of active or inactive are those of the source. The calls were made as follows: active = hit-call score of the fitted dose curve at least 0.9, where 1 is the maximum; inactive = score below 0.9.
Your reply should match one of these outcome classes. active, inactive

IN: Dear colleague, could you share the recorded outcome for COc1cc(/C=C/C(=O)CC(=O)/C=C/c2ccc(O)c(OC)c2)ccc1O when you have a moment?
OUT: active

IN: Dear colleague, could you share the recorded outcome for Cc1ccc(N(C)C)cc1 when you have a moment?
OUT: inactive

IN: Dear colleague, could you share the recorded outcome for CCOc1ccc2c(c1)C(C)=CC(C)(C)N2 when you have a moment?
OUT: active

====

- test system: human AKT serine/threonine Kinase 1 (AKT1), AKT1 (gene 207)
- test name: NVS_ENZ_hAKT1: NovaScreen (NVS) Enzymatic Assay for human AKT serine/threonine Kinase 1 (AKT1) (AID 2283138)
Results filed as inconclusive are left out. Activity calls are given as the source filed them. The calls were made as follows: active = hit-call score of the fitted dose curve at least 0.9, where 1 is the maximum; inconclusive = response in the unintended direction; inactive = score below 0.9.
recorded metric: outcome

Example molecules with recorded outcome:
CCCCCCCCCCCC(=O)OC | inactive
CC(=O)C(C)=CC1C(C)=CCCC1(C)C (stereo not drawn) | inactive
CC1=C(/C=C/C(C)=C/C=C/C(C)=C/CO)C(C)(C)CCC1 | inactive
O=C(OCCCCCOC(=O)c1ccccc1)c1ccccc1 | inactive
NCCO | inactive
CC(C)(C)c1cc(O)c(C(C)(C)C)cc1O | inactive
Nc1ccc2c(c1)C(=O)c1ccccc1C2=O | inactive

// next entry
outcome in this record for CNC(=O)[C@H]1O[C@@H](n2cnc3c(NCc4cc(Cl)ccc4OCc4cc(C)no4)ncnc32)[C@H](O)[C@@H]1N : inactive

====

- test system: Oxysterols receptor LXR-alpha (Homo sapiens) (UniProt Q13133)
- Sequence (Q13133 whole entry, looked up): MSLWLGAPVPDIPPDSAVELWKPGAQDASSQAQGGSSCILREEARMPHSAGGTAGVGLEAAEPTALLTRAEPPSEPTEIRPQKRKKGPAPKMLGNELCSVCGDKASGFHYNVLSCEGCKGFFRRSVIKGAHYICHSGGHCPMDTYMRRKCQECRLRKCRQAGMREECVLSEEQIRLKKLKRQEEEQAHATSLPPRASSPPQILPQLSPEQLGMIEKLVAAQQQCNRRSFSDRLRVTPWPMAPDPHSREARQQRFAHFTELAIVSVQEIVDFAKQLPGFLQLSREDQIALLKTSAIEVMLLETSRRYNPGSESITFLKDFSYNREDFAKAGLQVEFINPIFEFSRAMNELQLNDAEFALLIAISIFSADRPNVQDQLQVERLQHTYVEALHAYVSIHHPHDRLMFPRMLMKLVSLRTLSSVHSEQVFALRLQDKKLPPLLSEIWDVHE
- test name: ATG_LXRa_TRANS: Attagene TRANS-FACTORIAL HepG2 Assay for human Liver X Receptor alpha (LXRa) (AID 2282980)
- condition context: HepG2 Attagene TRANS reporter, LXRa transactivation
Results filed as inconclusive are left out. Activity calls are given as the source filed them. How the source made its calls: active means hit-call score of the fitted dose curve at least 0.9, where 1 is the maximum; inconclusive means response in the unintended direction; inactive means score below 0.9.
Your reply should match one of these outcome classes. class 1 = active, class 0 = inactive

IN: Dear colleague, could you share the recorded outcome for CNC(=O)[C@H]1O[C@@H](n2cnc3c(NCc4cc(Cl)ccc4OCc4cc(C)no4)ncnc32)[C@H](O)[C@@H]1N when you have a moment?
OUT: class 0

IN: Dear colleague, could you share the recorded outcome for CCCCC(CC)COC(=O)CC(C(=O)OCC(CC)CCCC)S(=O)(=O)O (stereo unspecified) when you have a moment?
OUT: class 0

IN: Dear colleague, could you share the recorded outcome for CCCCCCCCCCCC(=O)OC when you have a moment?
OUT: class 0

IN: Dear colleague, could you share the recorded outcome for NC(=O)Cn1c(=O)cc(CCN2CCN(c3nccc4sccc34)CC2)c2ccc(F)cc21 when you have a moment?
OUT: class 0

IN: Dear colleague, could you share the recorded outcome for C=CCOC(=O)c1ccccc1C(=O)OCC=C when you have a moment?
OUT: class 1

IN: Dear colleague, could you share the recorded outcome for COc1ccc(C)cc1N when you have a moment?
OUT: class 0

====

- Read-out: Low-density lipoprotein receptor (LDLR), LDLR (gene 3949)
- test name: BSK_CASM3C_LDLR: BioMAP Diversity Plus: CASM3C Assay for Low-density lipoprotein receptor (LDLR) Biomarker Activity (AID 2283045);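 note: LDLR protein level on the cell surface quantified by ELISA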
- condition context: primary human coronary artery smooth muscle cells; actives raise or lower the signal
Active and inactive are the calls of the source. How the source made its calls: active means hit-call score of the fitted dose curve at least 0.9, where 1 is the maximum; inactive means score below 0.9.
Your reply should match one of these outcome classes. Y for active, N for inactive

IN: Dear colleague, could you share the recorded outcome for CC1(C)NC(=O)NC1=O when you have a moment?
OUT: N

IN: Dear colleague, could you share the recorded outcome for COc1cc(-c2nc(NC(=O)c3cc4cc(C)cc(C)c4n3CC(=O)O)sc2CCC2CCCCC2)c(OC)cc1Cl when you have a moment?
OUT: Y

IN: Dear colleague, could you share the recorded outcome for C[C@]12C=CC(=O)C=C1CC[C@@H]1[C@@H]2C(=O)C[C@@]2(C)[C@H]1CC[C@]2(O)C(=O)CO when you have a moment?
OUT: N

IN: Dear colleague, could you share the recorded outcome for COC(=O)c1ccc(O)cc1 when you have a moment?
OUT: N

IN: Dear colleague, could you share the recorded outcome for Cc1c(C(=O)O)c(O)cc2c1C(=O)c1c(O)c([C@@H]3O[C@H](CO)[C@@H](O)[C@H](O)[C@H]3O)c(O)c(O)c1C2=O when you have a moment?
OUT: N

====

- Read-out: Intercellular Adhesion Molecule 1 (ICAM1), ICAM1 (gene 3383)
- test name: BSK_KF3CT_ICAM1: BioMAP Diversity Plus: KF3CT Assay for Intercellular Adhesion Molecule 1 (ICAM1) Biomarker Activity (AID 2283067)
- condition context: primary human keratinocytes with fibroblasts; actives raise or lower the signal
Active and inactive are the calls of the source. Rule for the calls: active = hit-call score of the fitted dose curve at least 0.9, where 1 is the maximum; inactive = score below 0.9.
Your reply should match one of these outcome classes. yes (active), no (inactive)

IN: Dear colleague, could you share the recorded outcome for COc1ccc(C)cc1N when you have a moment?
OUT: no

IN: Dear colleague, could you share the recorded outcome for CN[C@H]1CC[C@@H](c2ccc(Cl)c(Cl)c2)c2ccc(S(N)(=O)=O)cc21 when you have a moment?
OUT: yes

IN: Dear colleague, could you share the recorded outcome for Nc1ccccc1N when you have a moment?
OUT: no

IN: Dear colleague, could you share the recorded outcome for C=CCc1ccc(O)c(OC)c1 when you have a moment?
OUT: no

IN: Dear colleague, could you share the recorded outcome for CC(=O)OCCOCCOCCOC(C)=O when you have a moment?
OUT: no

IN: Dear colleague, could you share the recorded outcome for Cc1ccc(Cl)cc1 when you have a moment?
OUT: no

IN: Dear colleague, could you share the recorded outcome for Oc1ccc2c(c1)OC[C@@H](N1CCC(O)(c3ccc(F)cc3)CC1)[C@H]2O when you have a moment?
OUT: no

IN: Dear colleague, could you share the recorded outcome for Cc1cccc([N+](=O)[O-])c1C when you have a moment?
OUT: no

IN: Dear colleague, could you share the recorded outcome for Nc1ccc2c(c1)C(=O)c1ccccc1C2=O when you have a moment?
OUT: no

IN: Dear colleague, could you share the recorded outcome for C=CCOC(=O)c1ccccc1C(=O)OCC=C when you have a moment?
OUT: no

IN: Dear colleague, could you share the recorded outcome for C[Si]1(C)O[Si](C)(C)O[Si](C)(C)O[Si](C)(C)O1 when you have a moment?
OUT: no

IN: Dear colleague, could you share the recorded outcome for Nc1nc(N)c2nc(CNc3ccc(C(=O)N[C@@H](CCC(=O)O)C(=O)O)cc3)cnc2n1 when you have a moment?
OUT: no

IN: Dear colleague, could you share the recorded outcome for Cc1ccc(C)c(O)c1C when you have a moment?
OUT: no
